Tested on: Radical scavenging activity
protocol: Antioxidant activity assessed as DPPH radical scavenging activity at 31.25 ug/ml after 20 min by ELISA
Type: functional
Please mark True if the recorded Activity is equal to or greater than 20%, and False if it falls below.

structure_string=CCOc1ccc(-c2cc(-c3ccccc3O)nc(=S)[nH]2)cc1OC label_class=True
structure_string=O=c1nc(-c2ccccc2O)cc(-c2ccc(Cl)cc2)[nH]1 label_class=False
structure_string=CCOc1ccc(-c2cc(-c3ccccc3O)nc(=O)[nH]2)cc1OC label_class=False
structure_string=O=c1nc(-c2ccccc2O)cc(-c2ccc(F)cc2)[nH]1 label_class=False
structure_string=COc1ccccc1-c1cc(-c2ccccc2O)nc(=S)[nH]1 label_class=True
structure_string=COc1ccc(-c2cc(-c3ccccc3O)nc(=O)[nH]2)cc1OC label_class=False
structure_string=Oc1ccccc1-c1cc(-c2ccc(F)cc2)[nH]c(=S)n1 label_class=True
structure_string=Oc1ccccc1-c1cc(-c2ccc(Cl)cc2Cl)[nH]c(=S)n1 label_class=True
structure_string=CCOc1ccc(-c2cc(-c3ccccc3O)nc(=O)[nH]2)cc1 label_class=False
structure_string=O=c1nc(-c2ccccc2O)cc(-c2ccc(Br)cc2)[nH]1 label_class=False
structure_string=Oc1ccccc1-c1cc(-c2ccc(Cl)cc2)[nH]c(=S)n1 label_class=True
structure_string=O=C1O[C@H]([C@@H](O)CO)C(O)=C1O label_class=True
structure_string=COc1ccc(-c2cc(-c3ccccc3O)nc(=S)[nH]2)cc1OC label_class=True
structure_string=CCOc1ccc(-c2cc(-c3ccccc3O)nc(=S)[nH]2)cc1 label_class=True
structure_string=O=c1nc(-c2ccccc2O)cc(-c2ccc(Cl)cc2Cl)[nH]1 label_class=False
structure_string=COc1ccccc1-c1cc(-c2ccccc2O)nc(=O)[nH]1 label_class=False

====

Test system: Radical scavenging activity
protocol: Antioxidant activity assessed as DPPH radical scavenging activity at 62.5 ug/ml after 20 min by ELISA
Format: functional
Please mark class 1 if the recorded Activity is equal to or greater than 10%, and class 0 if it falls below.

structure_string=Oc1ccccc1-c1cc(-c2ccc(Cl)cc2)[nH]c(=S)n1 tgt="Radical scavenging activity" label_class="class 1"
structure_string=Oc1ccccc1-c1cc(-c2ccc(F)cc2)[nH]c(=S)n1 tgt="Radical scavenging activity" label_class="class 1"
structure_string=CCOc1ccc(-c2cc(-c3ccccc3O)nc(=O)[nH]2)cc1OC tgt="Radical scavenging activity" label_class="class 1"
structure_string=O=c1nc(-c2ccccc2O)cc(-c2ccc(Br)cc2)[nH]1 tgt="Radical scavenging activity" label_class="class 0"
structure_string=COc1ccc(-c2cc(-c3ccccc3O)nc(=S)[nH]2)cc1OC tgt="Radical scavenging activity" label_class="class 1"
structure_string=CCOc1ccc(-c2cc(-c3ccccc3O)nc(=S)[nH]2)cc1 tgt="Radical scavenging activity" label_class="class 1"
structure_string=COc1ccc(-c2cc(-c3ccccc3O)nc(=O)[nH]2)cc1OC tgt="Radical scavenging activity" label_class="class 1"
structure_string=COc1ccccc1-c1cc(-c2ccccc2O)nc(=S)[nH]1 tgt="Radical scavenging activity" label_class="class 1"
structure_string=Oc1ccccc1-c1cc(-c2ccc(Cl)cc2Cl)[nH]c(=S)n1 tgt="Radical scavenging activity" label_class="class 1"
structure_string=O=c1nc(-c2ccccc2O)cc(-c2ccc(Cl)cc2)[nH]1 tgt="Radical scavenging activity" label_class="class 0"
structure_string=CCOc1ccc(-c2cc(-c3ccccc3O)nc(=O)[nH]2)cc1 tgt="Radical scavenging activity" label_class="class 1"
